These entries and their values trace back to patent US20250230155A1.

Biological target: human mAChR M4 (Homo sapiens)
Construct: expressed in transfected cells
Sequence (P08173 whole entry): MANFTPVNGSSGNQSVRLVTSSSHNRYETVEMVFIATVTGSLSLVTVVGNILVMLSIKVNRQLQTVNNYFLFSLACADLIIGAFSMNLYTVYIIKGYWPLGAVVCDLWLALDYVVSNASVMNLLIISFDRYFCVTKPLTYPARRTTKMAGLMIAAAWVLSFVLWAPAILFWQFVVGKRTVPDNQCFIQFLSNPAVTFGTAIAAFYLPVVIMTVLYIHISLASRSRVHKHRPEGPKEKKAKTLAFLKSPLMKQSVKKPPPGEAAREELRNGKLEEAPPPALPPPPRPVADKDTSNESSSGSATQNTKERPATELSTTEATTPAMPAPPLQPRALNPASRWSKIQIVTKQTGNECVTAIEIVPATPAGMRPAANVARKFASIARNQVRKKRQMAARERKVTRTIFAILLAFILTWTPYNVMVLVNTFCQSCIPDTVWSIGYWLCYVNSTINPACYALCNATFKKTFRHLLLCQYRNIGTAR
Test: mAChR M4 cell-based functional assay (calcium mobilization, CHO-K1 hM4-Gqi5 cells)
Conditions: CHO-K1, % ACh maximum at 30 μM; human M4
property_name: Emax at 30 µM (%)

Cc1cc(C(=O)NC2CC2)cnc1N1CCc2ncccc2C1 ... 59
Cc1cc(C(=O)NCc2ccc(S(C)(=O)=O)cc2)cnc1N1CCc2ncccc2C1 ... 53
Cc1cc(C#N)cnc1N1CCc2ncc(N3CCCn4ccnc43)cc2C1 ... 47
Cc1cc(C(=O)NCc2ccc3ncccc3c2)cnc1N1CCc2ncccc2C1 ... 43
Cc1cc(C(=O)NCc2cccnc2)cnc1N1CCc2ncccc2C1 ... 61

[P] Cc1c(Cl)nc(C2CC2)nc1N1CCc2ncc(Nc3ccccc3F)cc2C1
[Q] Cc1nc(Cl)c(C)c(N2Cc3cc(-c4cn(C)nc4C)cnc3C(C)(C)C2)n1
### Prompt Compare Emax at 30 µM: is it lower for P or for Q ? Kindly give the label for the entry you pick.
### Response Q
